FYI, the data here is from PubChem BioAssay.

- Tested system: Fibroblast growth factor 2 (Homo sapiens)
- Assay overview: basic fibroblast growth factor binding to printed compounds – biochemical, small-molecule microarray, 635/667 nm fluorescence, primary screen (AID 1133)
- Run conditions: FGF2, fluorescence 635/667, higher = more signal
Some compounds, each annotated with its measured composite z-score.
Field format: numeric only.

Some entries whose results are on file:
input: Field: composite z-score (Fibroblast growth factor 2 (Homo sapiens)). Entry: COC(=O)[C@@]1(Cc2ccc(OC)cc2)[C@H]2c3cc(C(=O)N4CCCC4)n(CCF)c3C[C@H]2CN1C(=O)c1ccccc1
output: -0.0251

input: Then what about the compound COCC1=C([C@H](O)CCc2ccccc2)[C@H](CO)[C@@H]2C(=O)N(C)C(=O)[C@@H]2C1 ?
output: 0.584

input: Then what about the compound C[C@H]1NC(=O)C([C@@H](C)OCc2ccccc2)NC(=O)[C@@]23C(=O)N[C@@H](Cc4ccccc4)C2[C@H](C)[C@@]2(C)O[C@H]2C3/C=C/CC/C=C/CNC1=O (stereo not given in full) ?
output: 0.588

input: Then what about the compound O=C1OCCC=C[C@H]2OC34C=CCN(Cn5nnc6ccccc65)C(=O)[C@H]3N(CCCCCO)C(=O)[C@@H]4C12 (stereo not given in full) ?
output: -0.346

Others:
input: Field: composite z-score (Fibroblast growth factor 2 (Homo sapiens)). Entry: CN(C)CCCNC(=O)[C@@]1(Cc2ccccc2I)c2ccccc2C(=O)N(Cc2ccccc2Cl)[C@H]1c1ccc(CO)cc1
output: -0.717

* * *

- Assay overview: probe aXIP binding to arrayed compounds – biochemical, NeuroSMM set, 635/667 nm fluorescence, primary screen (AID 1119);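 also: probe is the protein aXip251-270 applied at 1 µg/mL to compound-printed slides; binding of probe to printed compounds measured as 667 nm fluorescence plus signal to noise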
- Run conditions: small-molecule microarray, higher = more signal, called active from +8 up or from −8 down
Some compounds, each annotated with its measured composite Z-score.
Field format: numeric only.

Some entries whose results are on file:
input: // query composite Z-score value for entry COc1ccc(C(=O)Nc2ccc(CN3C(=O)[C@]4(O[C@H](CCn5cc([C@H](O)c6ccccc6)nn5)[C@@H]([Si](C)(C)c5ccc(OC)cc5)[C@@H]4C)c4ccccc43)cc2)cc1
output: 0.0958

input: Then what about the compound CC(C)N1C(=O)c2ccccc2[C@](C)(C(=O)O)[C@@H]1c1ccc(CO)cc1 ?
output: -0.158

Others:
input: // query composite Z-score value for entry O=C(C=C(CC(O)c1cccc(Cl)c1)OCCF)OCCF (stereo not drawn)
output: -0.361

* * *

- Tested system: Alpha-bungarotoxin (Bungarus multicinctus) (UniProt P60615)
- Sequence (P60615 whole entry, looked up): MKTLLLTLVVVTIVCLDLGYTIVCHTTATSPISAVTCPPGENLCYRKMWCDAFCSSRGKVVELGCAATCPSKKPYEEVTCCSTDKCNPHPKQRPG
- Assay overview: compounds binding labelled alpha-BTX control protein – biochemical, small-molecule microarray, Alexa647 label, 635/667 nm fluorescence, artefact control for SMM control protein annotation, profiling panel (AID 1117)
- Run conditions: alpha-BTX-A647 binding fluorescence, higher = more signal
Label scheme for composite z-score: lower than 0.2 is not fulfilled, 0.2 and above is fulfilled.

Field: example entries. Status: answers known.
input: Determine whether this compound has composite z-score no lower than 0.2: CCOC(=O)C1=CC[C@@H](c2cccc(Br)c2)N(S(=O)(=O)c2ccc(C)cc2)[C@H]1c1ccc([N+](=O)[O-])cc1
output: fulfilled

input: Then what about the compound C=CC[C@]1(C(=O)NCC(O)CO)N=C(c2ccc(OCCCO)cc2)O[C@H]1c1ccccc1N=[N+]=[N-] (stereo partly drawn) ?
output: not fulfilled

input: Then what about the compound C=C(COC)/C(=C/C[C@@H](OC(=O)c1ccncc1)c1cccc(OCCO)c1)c1cc(C(=O)OC)ccc1OC ?
output: fulfilled

Others:
input: Determine whether this compound has composite z-score no lower than 0.2: Cc1ccccc1C(O)C1C=CC2C(=O)N(Cc3ccccc3)C(=O)C2N1n1cnnc1 (stereo not drawn)
output: fulfilled

input: Then what about the compound COC(=O)[C@@]1(Cc2ccc(OC)cc2)[C@H]2c3cc(C(=O)N4CCCC4)n(CCc4ccc(O)c(OC)c4)c3C[C@H]2CN1C(=O)c1ccccc1 ?
output: not fulfilled

input: Then what about the compound C[C@H]1ON(c2ccccc2)[C@@H](c2ccccc2)[C@@H]1C(=O)N1C(=O)OC[C@@H]1c1ccccc1 ?
output: not fulfilled

input: Then what about the compound C=C(C(=O)CC[C@H](OC(=O)c1cccnc1)c1ccc(OCCO)cc1)C(C)C ?
output: fulfilled

input: Then what about the compound COc1ccc(CCNC(=O)[C@@H]2c3ccccc3C(=O)N(Cc3ccccc3)[C@H]2c2ccc(CO)cc2)cc1 ?
output: fulfilled
